- Target desc: T1, EsCas13d, nuclease-dead (Eubacterium siraeum, UniProt B0MS50, R295A;H300A;R849A;H854A)
- T1 sequence: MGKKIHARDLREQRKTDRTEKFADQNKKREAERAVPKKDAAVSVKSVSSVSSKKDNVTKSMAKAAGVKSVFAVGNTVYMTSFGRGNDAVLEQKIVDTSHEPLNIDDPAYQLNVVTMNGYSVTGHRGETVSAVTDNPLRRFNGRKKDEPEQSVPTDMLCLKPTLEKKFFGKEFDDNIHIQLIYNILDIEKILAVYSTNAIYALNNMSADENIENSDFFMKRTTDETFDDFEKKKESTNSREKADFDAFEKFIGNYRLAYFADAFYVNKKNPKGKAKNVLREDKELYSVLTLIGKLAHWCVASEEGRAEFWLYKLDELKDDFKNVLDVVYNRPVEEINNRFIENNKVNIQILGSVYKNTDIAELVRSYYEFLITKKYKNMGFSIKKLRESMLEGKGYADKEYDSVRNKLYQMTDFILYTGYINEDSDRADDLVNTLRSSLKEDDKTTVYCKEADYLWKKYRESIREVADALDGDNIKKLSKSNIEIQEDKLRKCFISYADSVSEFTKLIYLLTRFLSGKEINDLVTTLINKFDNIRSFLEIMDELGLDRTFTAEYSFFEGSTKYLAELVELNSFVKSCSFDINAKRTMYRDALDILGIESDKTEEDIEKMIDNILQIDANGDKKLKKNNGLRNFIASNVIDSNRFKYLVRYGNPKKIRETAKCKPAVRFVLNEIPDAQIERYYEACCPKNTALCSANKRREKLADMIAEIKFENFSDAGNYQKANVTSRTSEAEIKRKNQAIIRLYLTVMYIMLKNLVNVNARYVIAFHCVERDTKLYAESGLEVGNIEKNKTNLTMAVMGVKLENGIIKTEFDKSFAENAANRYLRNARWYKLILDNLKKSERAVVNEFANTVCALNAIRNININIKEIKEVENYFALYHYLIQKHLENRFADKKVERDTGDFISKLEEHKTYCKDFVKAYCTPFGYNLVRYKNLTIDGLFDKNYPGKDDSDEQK
- Test protocol: crRNA (strand 1, pre-loaded); Mg2+; 40 mM Tris-HCl pH 7.5, 150 mM NaCl, 6 mM MgCl2, 1 mM DTT, 0.1% Tween-20, 0.2 mg/ml BSA; 25 C; 10 min per concentration, then washed
- Condition set: tags: His6-TwinStrep-SUMO cleaved; N-terminal SNAP kept (SNAP-Surface 488); label: 3' end held by stalled T7 RNA polymerase
Parameter: pKd
To interpret pKd, take it as minus log10 of a concentration measured in moles per litre.

Binder	pKd
target 2 MT 5'PFS UCU 3'PFS CCG (mixed) RNA 1: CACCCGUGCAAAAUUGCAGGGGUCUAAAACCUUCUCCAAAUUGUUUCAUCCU RNA 2: GGGAAUGGAUCCACAUCUACGAAUUCUCUAGGAUGAAACAAUUUGGAGAAGCCGAGAUCGGAAGAGCACACGU	7.76
target 2 MT 5'PFS GGU 3'PFS AUU (mixed) RNA 1: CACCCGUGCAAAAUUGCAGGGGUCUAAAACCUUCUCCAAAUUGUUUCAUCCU RNA 2: GGGAAUGGAUCCACAUCUACGAAUUCGGUAGGAUGAAACAAUUUGGAGAAGAUUAGAUCGGAAGAGCACACGU	7.83

Consider the record given below.
Per the record, target 1 U10C,A20U (mixed) RNA 1: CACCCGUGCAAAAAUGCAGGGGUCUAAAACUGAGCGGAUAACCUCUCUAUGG RNA 2: GGGAAUGGAUCCACAUCUACGAAUUCGUACCUUAGAGAGGUCAUCCGCUCACCGAGAUCGGAAGAGCACACGU has pKd of 7.00
